test system: Staphylococcus aureus; experiment: Antibacterial activity against Staphylococcus aureus Smith; type: ADME, organism-based

[
  {
    "COMPOUND_SMILES": "C[C@H]1COc2c(NCCCc3ccccn3)c(F)c(N)c3c(=O)c(-c4nnn[nH]4)cn1c23",
    "UNIT_ABBREV": "µM",
    "INEQUALITY_SIGN": "=",
    "MIC": 69
  },
  {
    "COMPOUND_SMILES": "C[C@H]1COc2c(NCCNc3ccccn3)c(F)c(N)c3c(=O)c(C(N)=O)cn1c23",
    "UNIT_ABBREV": "µM",
    "INEQUALITY_SIGN": ">",
    "MIC": 285
  },
  {
    "COMPOUND_SMILES": "C[C@H]1COc2c(NCCNc3ccccn3)c(F)c(N)c3c(=O)c(C(=O)O)cn1c23",
    "UNIT_ABBREV": "µM",
    "INEQUALITY_SIGN": "=",
    "MIC": 2
  },
  {
    "COMPOUND_SMILES": "C[C@H]1COc2c(NCCCn3cccn3)c(F)c(N)c3c(=O)c(C#N)cn1c23",
    "UNIT_ABBREV": "µM",
    "INEQUALITY_SIGN": ">",
    "MIC": 306
  },
  {
    "COMPOUND_SMILES": "C[C@H]1COc2c(NCCCc3ccccc3)c(F)c(N)c3c(=O)c(C(N)=O)cn1c23",
    "UNIT_ABBREV": "µM",
    "INEQUALITY_SIGN": "=",
    "MIC": 78
  },
  {
    "COMPOUND_SMILES": "C[C@H]1COc2c(NCCCn3ccnc3)c(F)c(N)c3c(=O)c(-c4nnn[nH]4)cn1c23",
    "UNIT_ABBREV": "µM",
    "INEQUALITY_SIGN": ">",
    "MIC": 257
  },
  {
    "COMPOUND_SMILES": "C[C@H]1COc2c(NCCCn3ccnc3)c(F)c(N)c3c(=O)c(C#N)cn1c23",
    "UNIT_ABBREV": "µM",
    "INEQUALITY_SIGN": ">",
    "MIC": 306
  },
  {
    "COMPOUND_SMILES": "C[C@H]1COc2c(NCCCn3cccn3)c(F)c(N)c3c(=O)c(C(=O)O)cn1c23",
    "UNIT_ABBREV": "µM",
    "INEQUALITY_SIGN": "=",
    "MIC": 2
  },
  {
    "COMPOUND_SMILES": "C[C@H]1COc2c(NCCCn3ccnc3)c(F)c(N)c3c(=O)c(C(N)=O)cn1c23",
    "UNIT_ABBREV": "µM",
    "INEQUALITY_SIGN": ">",
    "MIC": 249
  },
  {
    "COMPOUND_SMILES": "C[C@H]1COc2c(NCCCn3ccnc3)c(F)c(N)c3c(=O)c(C(=O)O)cn1c23",
    "UNIT_ABBREV": "µM",
    "INEQUALITY_SIGN": "=",
    "MIC": 8
  },
  {
    "COMPOUND_SMILES": "C[C@H]1COc2c(NCCCc3ccccn3)c(F)c(N)c3c(=O)c(C#N)cn1c23",
    "UNIT_ABBREV": "µM",
    "INEQUALITY_SIGN": ">",
    "MIC": 298
  },
  {
    "COMPOUND_SMILES": "C[C@H]1COc2c(NCCCc3ccccn3)c(F)c(N)c3c(=O)c(C(=O)O)cn1c23",
    "UNIT_ABBREV": "µM",
    "INEQUALITY_SIGN": "=",
    "MIC": 2
  },
  {
    "COMPOUND_SMILES": "C[C@H]1COc2c(NCCCc3ccccc3)c(F)c(N)c3c(=O)c(C(=O)O)cn1c23",
    "UNIT_ABBREV": "µM",
    "INEQUALITY_SIGN": "=",
    "MIC": 2
  }
]
